# measurement target: KRAS (Homo sapiens)
# Construct: His6-tagged human KRas Isoform 4B (residues 1-169); His6; made in house; host or cells: E. coli BL21(DE3), PQE80 vector
# Sequence (P01116 1-169 isoform P01116-2): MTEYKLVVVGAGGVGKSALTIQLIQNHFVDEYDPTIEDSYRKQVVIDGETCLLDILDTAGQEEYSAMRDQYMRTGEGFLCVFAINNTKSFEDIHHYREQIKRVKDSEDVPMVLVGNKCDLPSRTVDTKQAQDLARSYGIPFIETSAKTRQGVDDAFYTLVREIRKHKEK
# test description: B-RAP surface immunofluorescent assay, PCC ligand KRas EC50
# Format: binding
# experimental context: 10 μM KRas well of plate #1, pixel by pixel, right part of centroid
property: avg F635, Right Part Centroid
Reply: number alone, nothing else.

Q: Using known records, supply avg F635, Right Part Centroid for CC(C)[C@@H]1NC(=O)[C@H](CCC(=O)O)NC(=O)[C@H](C(C)C)NC(=O)[C@@H](N)Cc2cn(nn2)CCCC[C@@H](C(=O)NCCOCCOCCOCCOCCOCCC(=O)NCCNC(=O)CCCC[C@@H]2SC[C@@H]3NC(=O)N[C@@H]32)NC(=O)[C@@H]2CCCN2C(=O)[C@H](Cc2ccc(O)cc2)NC1=O (single isomer, unassigned) [Ligand L5a, VEVYP]
A: 8196

Q: Using known records, supply avg F635, Right Part Centroid for CC(C)[C@@H]1NC(=O)[C@@H](N)Cc2cn(nn2)CCCC[C@@H](C(=O)NCCOCCOCCOCCOCCOCCC(=O)NCCNC(=O)CCCC[C@@H]2SC[C@@H]3NC(=O)N[C@@H]32)NC(=O)[C@H](Cc2ccc(O)cc2)NC(=O)[C@@H]2CCCN2C(=O)[C@H](C(C)C)NC(=O)[C@H](CCC(=O)O)NC1=O (single isomer, unassigned) [Ligand L4b, VEVPY]
A: 31147

Q: Using known records, supply avg F635, Right Part Centroid for CC(C)[C@@H]1NC(=O)[C@@H](N)Cc2cn(nn2)CCCC[C@@H](C(=O)NCCOCCOCCOCCOCCOCCC(=O)NCCNC(=O)CCCC[C@@H]2SC[C@@H]3NC(=O)NC32)NC(=O)[C@H](Cc2ccc(O)cc2)NC(=O)[C@@H]2CCCN2C(=O)[C@H](C(C)C)NC(=O)[C@H](CCC(N)=O)NC1=O (single isomer, unassigned) [Ligand L7a, VQVPY]
A: 40918

Q: Using known records, supply avg F635, Right Part Centroid for CC(C)[C@@H]1NC(=O)[C@H](CCC(=O)O)NC(=O)CNC(=O)[C@@H](N)Cc2cn(nn2)CCCC[C@@H](C(=O)NCCOCCOCCOCCOCCOCCC(=O)NCCNC(=O)CCCC[C@@H]2SC[C@@H]3NC(=O)N[C@@H]32)NC(=O)[C@@H]2CCCN2C(=O)[C@H](C(C)C)NC1=O (single isomer, unassigned) [Ligand L3b, GEVVP]
A: 17046

Now consider the entry below.
Q: Using known records, supply avg F635, Right Part Centroid for CCC(C)[C@@H]1NC(=O)CNC(=O)[C@H](Cc2cnc[nH]2)NC(=O)[C@@H](N)Cc2cn(nn2)CCCC[C@@H](C(=O)NCCOCCOCCOCCOCCOCCC(=O)NCCNC(=O)CCCC[C@@H]2SC[C@@H]3NC(=O)N[C@@H]32)NC(=O)CNC(=O)[C@H](C(C)C)NC1=O (single isomer, unassigned) [Ligand L1a, HGIVG]
A: 21906
